# relative viability values compiled below
Tested on: NCI-H1975
Experiment: relative viability (nuclei count vs DMSO), 5 days (fraction); higher = more cells survive
Conditions: first compound 0.05 µM

Field: example entries. Status: answers known.
>  <molecule>
Nc1ccn([C@@H]2O[C@H](CO)[C@@H](O)[C@@H]2O)c(=O)n1 [Cytarabine] + O=C(c1cc(Cc2n[nH]c(=O)c3ccccc23)ccc1F)N1CCN(C(=O)C2CC2)CC1 [Olaparib] (partner 8 µM)

>  <relative viability>
0.561

$$$$
>  <molecule>
COc1cc2nccc(Oc3ccc(NC(=O)Nc4cc(C)on4)c(Cl)c3)c2cc1OC [Tivozanib] + CC1(C)CCC(c2ccc(Cl)cc2)=C(CN2CCN(c3ccc(C(=O)NS(=O)(=O)c4ccc(N[C@H](CCN5CCOCC5)CSc5ccccc5)c(S(=O)(=O)C(F)(F)F)c4)cc3)CC2)C1 [Navitoclax] (partner 0.5 µM)

>  <relative viability>
1.09

$$$$
>  <molecule>
Nc1ccn([C@@H]2O[C@H](CO)[C@@H](O)[C@@H]2O)c(=O)n1 [Cytarabine] + N=C(N)NC(=N)NCCc1ccccc1 [Phenformin] (partner 250 µM)

>  <relative viability>
0.31

$$$$

Now, please, on to the next molecule.
Per the reported NCI-H1975 data, Nc1ccn([C@@H]2O[C@H](CO)[C@@H](O)[C@@H]2O)c(=O)n1 [Cytarabine] + COc1cc2c(Oc3ccc(NC(=O)C4(C(=O)Nc5ccc(F)cc5)CC4)cc3F)ccnc2cc1OCCCN1CCOCC1 [Foretinib] (partner 0.25 µM) has relative viability of 0.889

====

Test system: NCI-H2405
Experiment: relative viability (nuclei count vs DMSO), 5 days (fraction); higher = more cells survive
Conditions: first compound 0.006325 µM
observation type: relative viability
Would you mind answering with just the numeric figure?

Field: example entries. Status: answers known.
>  <molecule>
CC(=O)O[C@@]12CO[C@@H]1C[C@H](O)[C@@]1(C)C(=O)[C@H](O)C3=C(C)[C@@H](OC(=O)[C@H](O)[C@@H](NC(=O)OC(C)(C)C)c4ccccc4)C[C@@](O)([C@@H](OC(=O)c4ccccc4)[C@H]21)C3(C)C [Docetaxel] + CC(=O)Nc1cccc(-n2c(=O)n(C3CC3)c(=O)c3c(Nc4ccc(I)cc4F)n(C)c(=O)c(C)c32)c1 [Trametinib] (partner 0.02 µM)

>  <relative viability>
0.456

$$$$
>  <molecule>
CC(=O)O[C@@]12CO[C@@H]1C[C@H](O)[C@@]1(C)C(=O)[C@H](O)C3=C(C)[C@@H](OC(=O)[C@H](O)[C@@H](NC(=O)OC(C)(C)C)c4ccccc4)C[C@@](O)([C@@H](OC(=O)c4ccccc4)[C@H]21)C3(C)C [Docetaxel] + Nc1nc2[nH]cc(CCc3ccc(C(=O)N[C@@H](CCC(=O)O)C(=O)O)cc3)c2c(=O)[nH]1 [Pemetrexed] (partner 0.2 µM)

>  <relative viability>
0.405

$$$$

# molecule CC(=O)O[C@@]12CO[C@@H]1C[C@H](O)[C@@]1(C)C(=O)[C@H](O)C3=C(C)[C@@H](OC(=O)[C@H](O)[C@@H](NC(=O)OC(C)(C)C)c4ccccc4)C[C@@](O)([C@@H](OC(=O)c4ccccc4)[C@H]21)C3(C)C [Docetaxel] + O=C(CCCCCCC(=O)Nc1ccccc1)NO [Vorinostat] (partner 1 µM) ; its relative viability = 0.394

# molecule CC(=O)O[C@@]12CO[C@@H]1C[C@H](O)[C@@]1(C)C(=O)[C@H](O)C3=C(C)[C@@H](OC(=O)[C@H](O)[C@@H](NC(=O)OC(C)(C)C)c4ccccc4)C[C@@](O)([C@@H](OC(=O)c4ccccc4)[C@H]21)C3(C)C [Docetaxel] + N=C(N)NC(=N)NCCc1ccccc1 [Phenformin] (partner 250 µM) ; its relative viability = 0.297
